TARGET_ENTITY: T1, Peptide-4 (cysteine pairing not given here; also: biotinylated, site not given here)
T1 peptide: VDFCKIYAWPICGS
METHOD_NOTES: ELISA, Fab on captured biotin-peptide
pEC50: −log10 of the molar value. Where no end group is shown, it is not given here.
pEC50 values for the binders below.
QUANTITY_KIND: pEC50

binder="TBD-11 (HC R98A) (Fab, V domains shown, Fab; also called HC R98A mutant) VH: QVQLQQSGSELKKPGASVKVSCKASGYTFTNYGMNWVKQAPGQGLKWMGWINTYTGEPTYTDDFKGRFAFSLDTSVSTAYLQISSLKADDTAVYFCAAGGFGSSYWYFDVWGQGSLVTVSS VL: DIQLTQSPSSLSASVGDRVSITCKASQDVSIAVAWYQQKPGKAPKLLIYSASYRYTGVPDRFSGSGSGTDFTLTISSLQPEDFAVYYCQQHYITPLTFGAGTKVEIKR" val=6.75
binder="TBD-22 (HC D109A) (Fab, V domains shown, Fab; also called HC D109A mutant) VH: QVQLQQSGSELKKPGASVKVSCKASGYTFTNYGMNWVKQAPGQGLKWMGWINTYTGEPTYTDDFKGRFAFSLDTSVSTAYLQISSLKADDTAVYFCARGGFGSSYWYFAVWGQGSLVTVSS VL: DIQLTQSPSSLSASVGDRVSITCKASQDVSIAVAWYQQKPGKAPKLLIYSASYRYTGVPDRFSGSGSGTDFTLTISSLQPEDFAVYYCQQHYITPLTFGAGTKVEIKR" val=8.92
binder="TBD-17 (HC S104A) (Fab, V domains shown, Fab; also called HC S104A mutant) VH: QVQLQQSGSELKKPGASVKVSCKASGYTFTNYGMNWVKQAPGQGLKWMGWINTYTGEPTYTDDFKGRFAFSLDTSVSTAYLQISSLKADDTAVYFCARGGFGSAYWYFDVWGQGSLVTVSS VL: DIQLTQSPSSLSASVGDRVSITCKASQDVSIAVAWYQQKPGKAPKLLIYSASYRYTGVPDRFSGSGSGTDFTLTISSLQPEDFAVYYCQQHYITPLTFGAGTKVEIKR" val=8.19
